// values below are reported acute toxicity value (LD50)
System: mice (male, 20 g)
experiment description: acute toxicity (LD50), intraperitoneal administration in mice
Type: in vivo

Take a look at these entries with their results.
> print(dat)
                                   compound               reported.measurement
1  COCCN(CC(=O)O)C(=O)[C@H](CCCNC(=N)N)NS(=O)(=O)c1ccc2ccc(OC)cc2c1 [Sample 35]      2,000 milligrams per kilogram
2  CCOCCN(CCC(=O)O)C(=O)[C@H](CCCNC(=N)N)NS(=O)(=O)c1ccc2cc(OC)c(OC)cc2c1 [Sample 21]  660-1,000 milligrams per kilogram
3  COCCN(CC(=O)O)C(=O)[C@H](CCCNC(=N)N)NS(=O)(=O)c1cc(OC)c2cc(OC)ccc2c1 [Sample 23]  660-1,000 milligrams per kilogram

As a next step, examine the compound that follows.
Query :: May I ask what acute toxicity value (LD50) has been recorded for COCCN(CC(=O)O)C(=O)[C@H](CCCNC(=N)N)NS(=O)(=O)c1ccc2cc(OC)c(OC)cc2c1 [Sample 13] ?
Result :: 1,900-2,400 milligrams per kilogram

Provenance of the data: patent US4073892A
